molecular target: Rat SERT (Rattus norvegicus, UniProt P31652); construct: A rat brain without cerebellum (Zivic Laboratories, Inc.—Pittsburgh, Pa.) was homogenized; tissue Zivic Laboratories, Inc; host or cells: rat brain without cerebellum, membranes; assay: Rat brain SERT binding ([3H]-citalopram displacement); settings: rat brain membranes without cerebellum, 0.6 nM [3H]-citalopram, 60 min at 25° C.; read-out: Rat SERT Ki
Sequence (P31652 whole entry): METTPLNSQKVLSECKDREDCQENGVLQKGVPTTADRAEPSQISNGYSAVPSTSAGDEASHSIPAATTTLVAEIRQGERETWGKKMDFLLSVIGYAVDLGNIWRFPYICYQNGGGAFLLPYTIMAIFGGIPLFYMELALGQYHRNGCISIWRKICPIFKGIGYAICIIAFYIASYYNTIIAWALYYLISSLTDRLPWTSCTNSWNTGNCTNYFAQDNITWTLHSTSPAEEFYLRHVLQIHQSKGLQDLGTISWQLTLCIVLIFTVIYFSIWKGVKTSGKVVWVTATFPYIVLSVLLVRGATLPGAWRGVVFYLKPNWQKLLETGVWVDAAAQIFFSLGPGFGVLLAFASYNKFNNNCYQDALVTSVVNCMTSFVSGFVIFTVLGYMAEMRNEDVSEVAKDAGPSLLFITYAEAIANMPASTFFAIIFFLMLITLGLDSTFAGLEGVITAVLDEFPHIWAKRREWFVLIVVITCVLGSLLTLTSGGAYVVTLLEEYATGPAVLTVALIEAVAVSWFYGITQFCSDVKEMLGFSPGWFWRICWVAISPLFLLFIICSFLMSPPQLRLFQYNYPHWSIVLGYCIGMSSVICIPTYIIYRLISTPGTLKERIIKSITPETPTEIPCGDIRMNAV
reported-endpoint: pKi
The meaning of pKi here: minus log10 of the concentration in molar units.

Example entries begin here.
compound="COc1ccc(C2CN(C)Cc3c2ccc(OCCCN2CCOCC2)c3C)cc1F (centres unmarked)" reported_endpoint=pKi measured_value=7.92
compound="COc1ccc(C2CN(C)Cc3cc(OCCCN4CCC(F)(F)C4)ccc32)cc1 (centres unmarked)" reported_endpoint=pKi measured_value=8.15
compound="CCN1CCC(COc2ccc3c(c2)CN(C)CC3c2cccc(OC)c2)CC1 (centres unmarked)" reported_endpoint=pKi measured_value=7.82
compound="COc1ccc(C2CN(C)Cc3cc(OCCCNCC(C)C)ccc32)cc1 (centres unmarked)" reported_endpoint=pKi measured_value=9.00

Task: GET /values?readout=pKi&item= CN1Cc2cc(OCCCN3CCC(F)CC3)ccc2C(c2ccc(N3CCOCC3)cc2)C1 (centres unmarked)
Result: 7.55

====

Target: Rat SERT (Rattus norvegicus)
Construct: A rat brain without cerebellum (Zivic Laboratories, Inc.—Pittsburgh, Pa.) was homogenized; tissue Zivic Laboratories, Inc; host or cells: rat brain without cerebellum, membranes
Experiment: Rat brain SERT binding ([3H]-citalopram displacement)
Conditions: rat brain membranes without cerebellum, 0.6 nM [3H]-citalopram, 60 min at 25° C.; read-out: Rat SERT Ki
Protocol: The supernatant was removed and re-centrifuged at 15,000 rpm for 30 min. […] Membranes were incubated with 0.6 nM [^3H]-Citalopram plus/minus test compounds for 60 min at 25° C. and harvested by rapid filtration over GF/C glass fiber filters (pretreated with 0.3% polyethylenimine) followed by four washes with ice-cold buffer.
reported-endpoint: Ki
The answer should read as a number with its unit following.

Task: GET /values?readout=Ki&item= COc1ccc(C2CN(C)Cc3cc(OC[C@H]4CN(C5CC5)CCO4)ccc32)cc1 (mixture of isomers) [Example 261]
Result: 32 nM

Task: Queued: COc1ccc(C2CN(C)Cc3cc(OCC4CCN(C)CC4)ccc32)cc1 (stereo not drawn)
Result: 7 nM

Task: Queued: CCCNCCCOc1ccc2c(c1)CN(C)CC2c1ccc(OC)cc1 (stereo not drawn)
Result: 2 nM

Task: Queued: CSc1ccc(C2CN(C)Cc3cc(OC4CCNCC4)ccc32)cc1 (stereo not drawn)
Result: 4 nM

Task: Queued: Cc1ccc(C2CN(C)Cc3cc(OCCCN4CCC(F)CC4)ccc32)cc1 (stereo not drawn)
Result: 3 nM

Task: Queued: COc1ccc(C2CN(C)Cc3cc(OCCCN4CCN(CC5CCCO5)CC4)ccc32)cc1 (stereo not drawn)
Result: 10 nM

Task: Queued: CCN1Cc2cc(OCCCN3CCCCC3)ccc2C(c2ccc(OC)cc2)C1 (stereo not drawn)
Result: 5 nM

Task: Queued: COc1ccc(C2CN(C)Cc3cc(OC[C@@H]4CN(C5CC5)CCO4)ccc32)cc1 (mixture of isomers) [Example 260]
Result: 29 nM

Task: Queued: COc1ccc(C2CN(C)Cc3cc(OCCCN4CCC(C#N)CC4)ccc32)cc1 (racemic) [Example 37]
Result: 8 nM

Task: Queued: COc1ccc(C2CN(C)Cc3cc(OCCCN4CCN(CCO)CC4)ccc32)cc1 (stereo not drawn)
Result: 3 nM
